Tested on: Mus musculus
Assay: Nephrotoxicity in ICR mouse assessed as induction of prominent nuclei at 2.5 mg/kg, iv bid for 7 days measured after 2 hrs post last dose by hematoxylin and eosin staining based assay
Assay type: toxicity, organism-based
Conditions: in vivo
Bridge positions count the residues as written; N and C are the ends. Square brackets hold non-standard residues; d marks the D form. Peptide text beside a SMILES is read from it. * marks the point of attachment. Heptanoyl(6-Me) = CC(C)CCCCC(=O)*; Dab = NCC[C@H](N)C(=O)O
PARAMETER MEASURED: Activity

{"COMPOUND": "CC(C)CCCCC(=O)N[C@@H](CCN)C(=O)N[C@H](C(=O)N[C@@H](CCN)C(=O)N[C@H]1CCNC(=O)[C@H]([C@@H](C)O)NC(=O)[C@H](CCN)NC(=O)[C@H](CCN)NC(=O)[C@H](CC(C)C)NC(=O)[C@@H](Cc2ccccc2)NC(=O)[C@H](CCN)NC1=O)[C@@H](C)O [POLYMYXIN B2] ({Heptanoyl(6-Me)}-[Dab]T[Dab][Dab][Dab][dF]L[Dab][Dab]T; lactam 4-C)", "Activity": "Toxic"}
{"COMPOUND": "CC(C)CCCCC(=O)N[C@@H](CCN)C(=O)N[C@H](C(=O)N[C@@H](CCN)C(=O)N[C@H]1CCNC(=O)[C@H]([C@@H](C)O)NC(=O)[C@H](CCN)NC(=O)[C@H](CCN)NC(=O)[C@H]([C@@H](C)O)NC(=O)[C@@H](CC(C)C)NC(=O)[C@H](CCN)NC1=O)[C@@H](C)O", "Activity": "Non-Toxic"}
{"COMPOUND": "CC(C)CCCCC(=O)N[C@@H](CCN)C(=O)N[C@H](C(=O)N[C@H](CO)C(=O)N[C@H]1CCNC(=O)[C@H]([C@@H](C)O)NC(=O)[C@H](CCN)NC(=O)[C@H](CCN)NC(=O)[C@H]([C@@H](C)O)NC(=O)[C@@H](Cc2ccccc2)NC(=O)[C@H](CCN)NC1=O)[C@@H](C)O ({Heptanoyl(6-Me)}-[Dab]T[dS][Dab][Dab][dF]T[Dab][Dab]T; lactam 4-C)", "Activity": "Non-Toxic"}
{"COMPOUND": "CC(C)CCCCC(=O)N[C@@H](CCN)C(=O)N[C@H](C(=O)N[C@H](CO)C(=O)N[C@H]1CCNC(=O)[C@H]([C@@H](C)O)NC(=O)[C@H](CCN)NC(=O)[C@H](CCN)NC(=O)[C@H]([C@@H](C)O)NC(=O)[C@@H](CC(C)C)NC(=O)[C@H](CCN)NC1=O)[C@@H](C)O ({Heptanoyl(6-Me)}-[Dab]T[dS][Dab][Dab][dL]T[Dab][Dab]T; lactam 4-C)", "Activity": "Toxic"}

Next item in the queue.
Short answer for CC(C)CCCCC(=O)N[C@@H](CCN)C(=O)N[C@H](C(=O)N[C@@H](CCN)C(=O)N[C@H]1CCNC(=O)[C@H]([C@@H](C)O)NC(=O)[C@H](CCN)NC(=O)[C@H](CCN)NC(=O)[C@H](CC(C)C)NC(=O)[C@@H](CC(C)C)NC(=O)[C@H](CCN)NC1=O)[C@@H](C)O [COLISTIN B] ({Heptanoyl(6-Me)}-[Dab]T[Dab][Dab][Dab][dL]L[Dab][Dab]T; lactam 4-C) : Activity was Non-Toxic
